Kindly supply the reported GI50 values for the records listed here.
# Tested on: NCI-H23
# protocol summary: NCI tumour cell line growth inhibition, 48 h
Activity calls are given as the source filed them. Rule as the data show it: active = GI50 up to about 1.1 µM and inactive = higher.

-- ask API: value(readout= GI50, system= NCI-H23, query= `CNC(SC)=C1C(=O)OC(C)(C)OC1=O` )
-- reply > 100 µM (inactive)

-- ask API: value(readout= GI50, system= NCI-H23, query= `COc1cc(/C=C2\CCC/C(=C\c3cc(OC)c(O)c(OC)c3)C2=O)cc(OC)c1O` )
-- reply 1.35 µM (inactive)

-- ask API: value(readout= GI50, system= NCI-H23, query= `CCOC(=O)c1c(N=C(S)Nc2ccccc2)sc2c1CCN(C)C2` )
-- reply > 100 µM (inactive)

-- ask API: value(readout= GI50, system= NCI-H23, query= Cc1c2oc3c(C)cnc(C(=O)NC4C(=O)NC(C(C)C)C(=O)N5CCCC5C(=O)N(C)CC(=O)N(C)C(C(C)C)C(=O)OC4C)c3nc-2c(C(=O)NC2C(=O)NC(C(C)C)C(=O)N3CCCC3C(=O)N(C)CC(=O)N(C)C(C(C)C)C(=O)OC2C)c(N)c1=O (stereo not given) )
-- reply 3.24 µM (inactive)

-- ask API: value(readout= GI50, system= NCI-H23, query= `CCC(=O)CC(=O)CCC(=O)Nc1cc(C)ccc1C` )
-- reply > 100 µM (inactive)

* * *

Kindly supply the reported GI50 values for the records listed here.
# Test system: ACHN
# protocol summary: NCI tumour cell line growth inhibition, 48 h
Activity calls are given as the source filed them. No stated cut-off is given here; in the data, active = GI50 up to about 1.1 µM and inactive = higher.

-- ask Need GI50, item `Cc1ccc(S(=O)(=O)Nn2c(S)c(C#N)c(-c3ccc([N+](=O)[O-])cc3)c(C#N)c2=O)cc1`
-- reply 51.5 µM (inactive)

-- ask Need GI50, item CCCCCOP(=O)(OCCCCC)C(NC(C)=O)(C(=O)OCC)C(F)(F)F (stereo not given)
-- reply > 100 µM (inactive)

-- ask Need GI50, item `COc1c(O)ccc(/C=N/NC(=S)NCOCCOC(C)=O)c1OC`
-- reply > 100 µM (inactive)

-- ask Need GI50, item `Cc1cc(=O)n(-c2ccccc2C)c(C)n1`
-- reply > 100 µM (inactive)

-- ask Need GI50, item `CC1=C2C(=O)O[C@@H](c3ccoc3)[C@]2(C)CCC1=O`
-- reply > 100 µM (inactive)

-- ask Need GI50, item `O=C(Nc1cc(Cl)ccc1Cl)c1cc2cccc(Cl)c2oc1=O`
-- reply > 100 µM (inactive)

-- ask Need GI50, item `CC(C)(CC(=O)Nc1ccccc1)C(=O)O`
-- reply > 100 µM (inactive)

-- ask Need GI50, item `COCc1nc2c(OC)c(-c3nc4ccc(N5CCN(C)CC5)cc4[nH]3)cc(OC)c2[nH]1`
-- reply 65.9 µM (inactive)

-- ask Need GI50, item C=CCC(O)c1cc(OC)ccc1OC (stereo not given)
-- reply > 100 µM (inactive)

-- ask Need GI50, item `C/C(Nc1ccc(Cl)cc1Cl)=C1/CCOC1=O`
-- reply 92.9 µM (inactive)

-- ask Need GI50, item `CC1=C(C(=O)Nc2ccccc2C)C(c2ccco2)C(C(=O)Nc2ccccc2C)=C(C)N1C`
-- reply > 100 µM (inactive)

-- ask Need GI50, item COC(=O)[C@@]12OC[C@]34C([C@@H](O)C1O)[C@@]1(C)CC(=O)C(OC(=O)CC(C)C(F)(F)F)=C(C)C1C[C@H]3OC(=O)[C@H](O)[C@H]42 (stereo not given in full)
-- reply 8.22 µM (inactive)

-- ask Need GI50, item CC1=N[C@](C)(C2CC3C=CC2C3=O)COC1=O (stereo not given in full)
-- reply > 100 µM (inactive)

-- ask Need GI50, item `O=C(c1ccc(Cl)cc1)N(C(=S)N1CCN(c2ccccn2)CC1)c1ccccc1`
-- reply > 100 µM (inactive)

-- ask Need GI50, item CCCCCC(O)[C@H]1C(=O)C[C@@H](O[Si](C)(C)C(C)(C)C)[C@@H]1/C=C/CCOCc1ccccc1 (stereo not given in full)
-- reply 13.5 µM (inactive)

-- ask Need GI50, item `C[C@@](Br)(C(=O)O)[C@H](Br)C(=O)O`
-- reply > 100 µM (inactive)

-- ask Need GI50, item `CCOC(C/N=c1/nc(N(C)C)ss1)OCC`
-- reply 26.2 µM (inactive)

-- ask Need GI50, item N=C1NC2(O)C(=O)c3ccccc3C2(O)N1 (stereo not given)
-- reply > 100 µM (inactive)

-- ask Need GI50, item CCOC(=O)C1=C(N2CCCC2)C(=O)C(C(=O)OCC)C1 (stereo not given)
-- reply > 100 µM (inactive)

-- ask Need GI50, item COC1C(OC(=O)c2ccc(C)[nH]2)C(O)C(Oc2ccc3c(O)c(NC(=O)c4c[nH]c(C(=O)Nc5c(O)c6ccc(OC7OC(C)(C)C(OC)C(OC(=O)c8ccc(C)[nH]8)C7O)c(C)c6oc5=O)c4C)c(=O)oc3c2C)OC1(C)C (stereo not given)
-- reply 2.53 µM (inactive)

* * *

Kindly supply the reported GI50 values for the records listed here.
# Tested on: M19-MEL
# protocol summary: NCI tumour cell line growth inhibition, 48 h
The source made the active and inactive calls. Cut-off read from the data, not from the text of the source: active = GI50 up to about 1.1 µM and inactive = higher.

-- ask Need GI50, item `CNC(SC)=C1C(=O)OC(C)(C)OC1=O`
-- reply > 100 µM (inactive)

-- ask Need GI50, item `CN(C)CCNC(=O)c1ccc(Cl)c2c(Nc3ccc(S(N)(=O)=O)cc3)c3ccccc3nc12`
-- reply 1.63 µM (inactive)

-- ask Need GI50, item `N#C/C(=C1/Sc2c(nc[nH]c2=O)N1c1ccccc1)c1nc2ccccc2[nH]1`
-- reply > 100 µM (inactive)

-- ask Need GI50, item `COC(=O)C(=O)Cc1nc2ccccc2o1`
-- reply > 100 µM (inactive)

-- ask Need GI50, item `CCOC(=O)/C(=C/c1cccc(C#N)c1)N(CC)CC`
-- reply > 100 µM (inactive)

-- ask Need GI50, item CCO[C@]12C[C@H](OC)[C@@]3(O)CC(C1[C@H]3O)C13C4C2[C@H](OC)C1[C@](COC)(CN4CC)[C@H](O)C[C@@H]3OC (stereo partly specified)
-- reply > 100 µM (inactive)

-- ask Need GI50, item `C=CCCCN1CCCCC1=S`
-- reply > 100 µM (inactive)

-- ask Need GI50, item O=C(c1nc2ccc(Cl)cc2nc1O)C(O)c1ccccc1 (stereo unspecified)
-- reply > 100 µM (inactive)

-- ask Need GI50, item Cc1cc(Cl)ccc1NC(=O)C1C(=O)N(c2ccc(Cl)cc2C)C(=O)/C1=N\NC(N)=S (stereo unspecified)
-- reply 37.4 µM (inactive)

-- ask Need GI50, item c1ccc(CN2CCCCC(Sc3ccccc3)CC2)cc1 (stereo unspecified)
-- reply 3.1 µM (inactive)

-- ask Need GI50, item COc1ccc(N2C(=O)C3CC(c4ccc(C)cc4)c4c([nH]c5ccccc45)C3C2=O)cc1 (stereo unspecified)
-- reply > 75.9 µM (inactive)

* * *

# Test system: UACC-257
# protocol summary: NCI tumour cell line growth inhibition, 48 h
Active and inactive are the calls of the source. Rule as the data show it: active = GI50 up to about 1.1 µM and inactive = higher.
readout kind: GI50

-- ask Need GI50, item `CC(C)(C)Nc1noc(=O)n1C(C)(C)C`
-- reply > 100 µM (inactive)

-- ask Need GI50, item `COc1ccc(C2=NN(c3ccccc3)C[N+](c3ccc(C)cc3)=N2)cc1`
-- reply > 100 µM (inactive)

-- ask Need GI50, item `Cc1cc2c3c(nc4ccccc42)C(=O)c2ccccc2-c3n1`
-- reply 22.8 µM (inactive)

-- ask Need GI50, item N#C/C(=C1\OC(=N)C(c2ccc(Cl)cc2Cl)C1=O)c1ccc(Cl)cc1Cl (stereo unspecified)
-- reply > 100 µM (inactive)

-- ask Need GI50, item CC(C)(C)OC(=O)NC(CCCCNC(=O)OCc1ccccc1)C(=O)NC(CCCCNC(=O)OCc1ccccc1)C(=O)ON1C(=O)CCC1=O (stereo unspecified)
-- reply > 100 µM (inactive)

-- ask Need GI50, item `C=CCN(c1cc(OCc2ccccc2)c2c(c1)c(C)cn2S(=O)(=O)c1ccccc1)S(C)(=O)=O`
-- reply > 100 µM (inactive)

-- ask Need GI50, item C/C=C/C1=CC(=O)C(O)C1O (stereo unspecified)
-- reply 29.4 µM (inactive)

-- ask Need GI50, item N#CC(c1cc(Cl)ncn1)c1nc2cc(C(F)(F)F)ccc2s1 (stereo unspecified)
-- reply 4.24 µM (inactive)

-- ask Need GI50, item COC(=O)C(C/C=C(\C)c1ccc(Cl)cc1)C(C)=O (stereo unspecified)
-- reply 23 µM (inactive)

-- ask Need GI50, item `CC12CC(Br)(Br)C(=O)C3C1CCCC32`
-- reply 8.65 µM (inactive)

-- ask Need GI50, item `CCOCCOCCOCc1nc(C#N)c(N)o1`
-- reply > 100 µM (inactive)
